Entries and their growth values follow.
Tested on: SK-MEL-28 melanoma
assay_name: NCI-60 one-dose screen, 48 h (100 = growth as untreated, 0 = no growth, -100 = all killed)
measurement_parameters: 10 µM unless noted
About 83,000 compounds went through this panel and 20% of them were active in at least one assay; those are over-represented in the sample as a whole.
endpoint_label: growth (%)

- compound: "O=C(NN1C(=O)/C(=C/C=C/c2ccc([N+](=O)[O-])o2)SC1=S)c1ccccc1O"
  system_tested: "SK-MEL-28 melanoma"
  experimental_result: -94.6
- compound: "Cc1ccc(-c2nc(C#N)c(S(=O)(=O)N3CCN(S(=O)(=O)c4ccc(Cl)cc4)CC3)o2)cc1"
  system_tested: "SK-MEL-28 melanoma"
  experimental_result: 98.7
- compound: "O=c1oc2ccccc2cc1-c1csc(N2N=C(c3ccccc3)CC2c2ccc(N3CCOCC3)cc2)n1 (stereo not drawn)"
  system_tested: "SK-MEL-28 melanoma"
  experimental_result: 109
- compound: "O=C1CC(Sc2n[nH]c(-c3ccncc3)n2)C(=O)N1c1ccc(Br)cc1 (stereo not drawn)"
  system_tested: "SK-MEL-28 melanoma"
  experimental_result: 108
- compound: "CCN(CC)c1ccnc(CNCCSC(c2ccccc2)(c2ccccc2)c2ccc(OC)cc2)c1"
  system_tested: "SK-MEL-28 melanoma"
  experimental_result: -48.5
- compound: "O=c1[nH]c2ccccc2cc1CSc1nccc(-c2ccc3ccccc3c2)n1"
  system_tested: "SK-MEL-28 melanoma"
  experimental_result: 86.3
- compound: "CC(=O)OC[C@@]1(C)C2CC[C@]3(C)C(CC=C4C5CC(C)(C)CC[C@]5(C(=O)Nc5ccc(F)cc5)CC[C@]43C)[C@@]2(C)C[C@@H](OC(C)=O)[C@@H]1OC(C)=O (stereo partly drawn)"
  system_tested: "SK-MEL-28 melanoma"
  experimental_result: 58.6
- compound: "Cc1cc2nc3c([nH]c2cc1C)c1ccc(=O)cc1n3CCN(C)C"
  system_tested: "SK-MEL-28 melanoma"
  experimental_result: 51.4
- compound: "CC(=O)Nc1cccc(Nc2nc(NCc3ccccc3)c3ccccc3n2)c1"
  system_tested: "SK-MEL-28 melanoma"
  experimental_result: -95.9
- compound: "Cc1ccc(C(=O)CSc2nc3ccc(C)cc3c(=O)n2-c2ccc(F)cc2)cc1"
  system_tested: "SK-MEL-28 melanoma"
  experimental_result: 88.1
- compound: "COc1c(F)ccc(C(=O)Nc2ccc3nc(NC(=O)C4CCCN(S(=O)(=O)c5ccc(Cl)cc5)C4)sc3c2)c1F (stereo not drawn)"
  system_tested: "SK-MEL-28 melanoma"
  experimental_result: 89.4
- compound: "O=C1CCCc2cc(OCC(=O)N3CCCCC3)ccc2N1"
  system_tested: "SK-MEL-28 melanoma"
  experimental_result: 119
- compound: "O=C(N/N=C/c1ccc(-c2ccc(O)cc2)o1)c1[nH]c2ccc(Br)cc2c1-c1ccccc1"
  system_tested: "SK-MEL-28 melanoma"
  experimental_result: -27
- compound: "CCN(CC)c1ccc(/C=N/Nc2nc(-c3ccc(Br)cc3)cs2)c(O)c1"
  system_tested: "SK-MEL-28 melanoma"
  experimental_result: 86.2
- compound: "CC(=O)Nc1cccc(Nc2nc(N[C@H]3CCCc4ccccc43)c3ccccc3n2)c1"
  system_tested: "SK-MEL-28 melanoma"
  experimental_result: 104
- compound: "CSc1ccc(NC(=O)c2ccc3nnn(/C(C#N)=C/c4ccccn4)c3c2)cc1"
  system_tested: "SK-MEL-28 melanoma"
  experimental_result: -72.6
- compound: "COc1ccc(/C=C/c2nc3ccccc3n3c(-c4ccc(Cl)cc4)nnc23)cc1"
  system_tested: "SK-MEL-28 melanoma"
  experimental_result: 104
- compound: "CC(/C=C1\\SC(=S)N(CCCC(=O)NC(CC(C)C)C(=O)O)C1=O)=C\\c1ccccc1 (stereo not drawn)"
  system_tested: "SK-MEL-28 melanoma"
  experimental_result: 94.8
- compound: "O=c1[nH]c(=O)c2c(-c3cc4ccccc4oc3=O)ccnc2[nH]1"
  system_tested: "SK-MEL-28 melanoma"
  experimental_result: 115
- compound: "C=Cn1cc(C(=O)O)c(=O)c2cc(F)c(N3CCN(c4nccc(-c5nccs5)n4)CC3)cc21"
  system_tested: "SK-MEL-28 melanoma"
  experimental_result: -38.5
- compound: "Cn1cc(-c2cc3nc(-c4cn(C)c5ncccc45)cc(N)n3n2)c2cc(Cl)ccc21"
  system_tested: "SK-MEL-28 melanoma"
  experimental_result: -99.9
- compound: "CCOC(=O)c1ccc(Nc2nc(NN)nc(-c3ccc(F)cc3)c2C#N)cc1"
  system_tested: "SK-MEL-28 melanoma"
  experimental_result: 109
- compound: "CC(C)CSc1nc(NCCc2c[nH]c3ccccc23)c(C#N)c(-c2ccc(F)cc2)n1"
  system_tested: "SK-MEL-28 melanoma"
  experimental_result: 79.1
- compound: "N#Cc1c(-c2cccc(Cl)c2Cl)cc(-c2c[nH]c3ccccc23)[nH]c1=O"
  system_tested: "SK-MEL-28 melanoma"
  experimental_result: 83.5
- compound: "CC(C)c1sc(NC(=O)c2cc(NC(=O)c3cc(NC(=O)c4cscn4)cn3C)cn2C)nc1C(=O)NCCCN(C)C"
  system_tested: "SK-MEL-28 melanoma"
  experimental_result: -16.3
- compound: "Cn1cc(-c2nnc(N)nc2-c2c[nH]c3ccccc23)c2cccnc21"
  system_tested: "SK-MEL-28 melanoma"
  experimental_result: 55
- compound: "S=C(Nc1ccccc1)Nc1ccc(OCc2nc3ccccc3[nH]2)cc1"
  system_tested: "SK-MEL-28 melanoma"
  experimental_result: 61.6
- compound: "CCCSc1nc(NCCc2c[nH]c3ccccc23)c(C#N)c(-c2ccccc2)n1"
  system_tested: "SK-MEL-28 melanoma"
  experimental_result: 97.4
- compound: "Cc1ccc(Cc2cnc(NC(=O)c3ccc(/C=C4\\SC(=S)N(C)C4=O)cc3)s2)cc1"
  system_tested: "SK-MEL-28 melanoma"
  experimental_result: 42.1
- compound: "O=C(Cn1c2c(sc1=O)[C@H]1[C@@H](O)[C@@H](O)[C@H](O)[C@@H]1CS2)N1CCOCC1"
  system_tested: "SK-MEL-28 melanoma"
  experimental_result: 107
- compound: "COc1cc2c(c(OC)c1OC)C(=O)CC(c1cccc(NC(=O)c3cc(N)ccc3Cl)c1)O2 (stereo not drawn)"
  system_tested: "SK-MEL-28 melanoma"
  experimental_result: 56.8
- compound: "Cn1cc(-c2cc(N)n3nc(-c4cn(C)c5ccccc45)cc3n2)c2cc(Br)ccc21"
  system_tested: "SK-MEL-28 melanoma"
  experimental_result: -86.4
- compound: "CCCSc1nc(NCCc2c[nH]c3ccccc23)c(C#N)c(-c2ccc(OC)cc2)n1"
  system_tested: "SK-MEL-28 melanoma"
  experimental_result: 71.4
- compound: "COc1ccc(NC(=O)Cn2c(/C=C/c3cccc([N+](=O)[O-])c3)nc3ccccc3c2=O)cc1"
  system_tested: "SK-MEL-28 melanoma"
  experimental_result: 93.7
- compound: "O=C(/C=C/Nc1ccc(Cl)cc1)c1ccc2c(c1)Nc1ccccc1S2"
  system_tested: "SK-MEL-28 melanoma"
  experimental_result: 65.9
- compound: "COc1ccc(NC(=O)[C@H](C)N)cc1C(=O)Nc1cccc(C2CC(=O)c3c(cc(OC)c(OC)c3OC)O2)c1 (stereo partly drawn)"
  system_tested: "SK-MEL-28 melanoma"
  experimental_result: 101
- compound: "O=[N+]([O-])c1ccc(/C=C/c2nc3ccccc3n3c(=S)[nH]nc23)cc1"
  system_tested: "SK-MEL-28 melanoma"
  experimental_result: 82.7
- compound: "Cc1c(C(=O)NNC(=O)c2ccc(Cl)cc2)nnn1-c1ccc(Br)cc1"
  system_tested: "SK-MEL-28 melanoma"
  experimental_result: 95.7

Data provenance is PubChem BioAssay (NCI).
